assay: Cytotoxicity activity against human HepG2 cells assessed by CellTiter-Glo luminescent cell viability assay.; type: toxicity, cell-based; design: assay stage confirmatory assay, source tissue liver; details: HepG2 cells, read-out: IC50 relative
Activity calls are given as the source filed them. How the calls were made is not given here.
Entry note: the call must match one of 1.0 = active, 0.0 = inactive

Use these answered entries as a reference point.
C#CCC(Cc1cnc2nc(N)nc(N)c2n1)c1ccc(C(=O)N[C@@H](CCC(=O)O)C(=O)O)cc1 (stereo not given in full) [PRALATREXATE] | 1.0
NC(=S)N/N=C/c1ncccc1N | 1.0
COc1cc2c(cc1C(=O)Nc1ccccc1F)OCCCO2 | 0.0
CNCc1ccc(-c2cc(-c3nc(-c4ccc(S(=O)(=O)C(C)C)cc4)cnc3N)on2)cc1 | 1.0
COc1cc(NCCCC(C)N)c2ncccc2c1 (stereo not given) | 1.0

For O=C1Nc2cc(Br)ccc2/C1=C1/Nc2ccccc2/C1=N\O , what call appears in the results of this test?
0.0

For COc1ccc(CN2CCN(CCSC)CC2)c2c(OC)cccc12 , what call appears in the results of this test?
0.0

For CCOc1cc(F)ccc1NC(=O)c1csc(-c2cnn(C)c2)n1 , what call appears in the results of this test?
1.0

For Clc1ccc(COC(Cn2ccnc2)c2ccc(Cl)cc2Cl)c(Cl)c1 (stereo not given) [MICONAZOLE NITRATE] , what call appears in the results of this test?
1.0

For Cc1ccc(NCc2cc(=O)n3c(C)csc3n2)c(F)c1 , what call appears in the results of this test?
1.0

====

assay: Cytotoxicity activity against human HepG2 cells assessed by CellTiter-Glo luminescent cell viability assay.; format: toxicity, cell-based; design: assay stage confirmatory assay, source tissue liver; settings: HepG2 cells, read-out: IC50 relative
Calls of active or inactive are those of the source. No rule for the calls is given here.
Entry note: the call must match one of active, inactive

Cc1cc(C)cc(N2CCC(NCC3CCCNC3)CC2)c1 (stereo not given) | active
O=C1C(Cl)=C(NCCN2CCOCC2)C(=O)c2ncccc21 | active
CCOc1ccc(S(=O)(=O)N(C)c2ccccc2)cc1 | inactive
O=C(CC1NCCCC1O)Cn1cnc2cc(Br)c(Cl)cc2c1=O (stereo not given) [HALOFUGINONE] | active
CC[C@H](C)n1cc(C)c2c(C(=O)NCc3c(C)cc(C)[nH]c3=O)cc(-c3ccc(N4CCNCC4)nc3)cc21 [GSK2816126] | active

Next compound, please.
For O=C(Nc1cnccc1Cl)N1CCN(Cc2ccc3c(c2)OC(F)(F)O3)CC1 [JNJ-42165279] , what call appears in the results of this test?
inactive

====

assay: Cytotoxicity activity against human HepG2 cells assessed by CellTiter-Glo luminescent cell viability assay.; assay type: toxicity, cell-based; set-up: assay stage confirmatory assay, source tissue liver; conditions: HepG2 cells, read-out: IC50 relative
Calls of active or inactive are those of the source. No rule for the calls is given here.
Entry note: the call must match one of active, inactive

Use these answered entries as a reference point.
CC1OC(OC2CC(O)C3(CO)C4C(O)CC5(C)C(C6=CC(=O)OC6)CCC5(O)C4CCC3(O)C2)C(O)C(O)C1O (stereo not drawn) | active
O=c1[nH]c2ccccc2n1C1CCN(CCCC(c2ccc(F)cc2)c2ccc(F)cc2)CC1 [PIMOZIDE] | active
Cc1c(Cl)sn(-c2ccc(Cl)cc2)c1=O | active
CC(C)NC(=O)[C@H]1CC[C@@H](n2/c(=N/C(=O)c3ccc(F)cc3)[nH]c3ccc(CN4CCC(C(C)(C)O)CC4)cc32)CC1 | active
C[C@@H]1NC(C(=O)Nc2ccnc3ccnn23)=NN(c2ccccc2)C1=O | active

For COC(=O)C[C@](O)(CCCC(C)(C)O)C(=O)O[C@@H]1C(OC)=C[C@]23CCCN2CCc2cc4c(cc2[C@H]13)OCO4 [OMACETAXINE MEPESUCCINATE] , what call appears in the results of this test?
active

For Nc1ccc2cc3ccc(N)cc3nc2c1 , what call appears in the results of this test?
active

For CC(C)c1c2cc(-c3ccnc(N[C@H]4CC[C@H](NC5CCOCC5)CC4)n3)ccc2nn1C , what call appears in the results of this test?
active

====

Quick reference for CC50 among some compounds
assay: Cytotoxicity activity against human HepG2 cells assessed by CellTiter-Glo luminescent cell viability assay.; format: toxicity, cell-based; parameters: assay stage confirmatory assay, source tissue liver; conditions: HepG2 cells, read-out: IC50 relative
The source made the active and inactive calls. How the calls were made is not given here.

Known results for compounds:
Fc1ccc2[nH]c(CCNc3ncc(Br)cn3)nc2c1 | 5.1 µM (active)
COc1cc2ncnc(Nc3cccc(Cl)c3)c2cc1OC [TYRPHOSTIN AG-1478] | 8.3 µM (active)

Please report CC50 for the following compound: Cc1sc2c(c1C)C(c1ccc(Cl)cc1)=N[C@@H](CC(=O)NCCCCCCCCNC(=O)COc1cccc3c1C(=O)N(C1CCC(=O)NC1=O)C3=O)c1nnc(C)n1-2 (some centres undefined)
< 0.1 µM (active)

Please report CC50 for the following compound: COc1ccccc1-c1nnc(-c2ccccc2O)o1
5.3 µM (active)

Please report CC50 for the following compound: COc1cc(C(=O)Nn2cnc3ccccc32)cc(Cl)c1OCC(N)=O
8.3 µM (inactive)

Please report CC50 for the following compound: Oc1ccc(CCNc2ncnc3cccc(F)c23)cc1
3.7 µM (active)

Please report CC50 for the following compound: CCO[C@@H](CCNC(=O)c1csc(-c2ccoc2)n1)C(C)C
1.3 µM (active)

====

experiment: Cytotoxicity activity against human HepG2 cells assessed by CellTiter-Glo luminescent cell viability assay.; format: toxicity, cell-based; set-up: assay stage confirmatory assay, source tissue liver; conditions: HepG2 cells, read-out: IC50 relative
Calls of active or inactive are those of the source. No rule for the calls is given here.
Entry note: the call must match one of 1 for active, -1 for inactive

For CCNC(=O)Nc1ccc(-c2nc3c(c(N4CCOC[C@@H]4C)n2)CCN(c2ncccn2)C3)cc1 , what call appears in the results of this test?
1

For CC(C)c1c(O)cc(/C=C/c2ccccc2)cc1O , what call appears in the results of this test?
1

For CNC(=O)c1nn(C)c2c1C(C)(C)Cc1cnc(Nc3ccc(N4CCN(C)CC4)cc3)nc1-2 , what call appears in the results of this test?
1

For O=C(c1cccc(S(=O)(=O)N2CCOCC2)c1)N1CCN(c2nc3ccccc3s2)CC1 , what call appears in the results of this test?
1

For CC[C@H](C)C(=O)O[C@H]1CCC=C2C=C[C@H](C)[C@H](CC[C@@H]3C[C@@H](O)CC(=O)O3)[C@H]21 , what call appears in the results of this test?
-1

For CC(C)c1noc(-c2ccc(OCC(=O)NC(C)(C)C)cc2)n1 , what call appears in the results of this test?
1

For CCN(CC)CCCNC(=O)C1CCCN(c2ncc(-c3ccc(F)cc3)cn2)C1 (stereo not drawn) , what call appears in the results of this test?
1

For COc1ccc(OCC(=O)N2CCN(S(=O)(=O)c3ccc4c(c3)NC(=O)C(C)O4)CC2)cc1 (stereo not drawn) , what call appears in the results of this test?
1

For O=C(NO)c1ccc(I)cc1 , what call appears in the results of this test?
1

For Fc1ccccc1CC1CCN(C[C@H]2[C@@H]3CNC[C@@H]32)CC1 , what call appears in the results of this test?
1

For Cc1ccccc1Oc1ccnc(CNC(=O)c2nccn2C)c1 , what call appears in the results of this test?
1

For CCn1c(=O)c(C(=O)Nc2cccc(OC)c2)c(O)c2ccccc21 , what call appears in the results of this test?
-1

For c1ccc(-n2ccc(CNc3ncnc4c3ncn4C3CC3)n2)cc1 , what call appears in the results of this test?
1

====

assay: Cytotoxicity activity against human HepG2 cells assessed by CellTiter-Glo luminescent cell viability assay.; assay type: toxicity, cell-based; parameters: assay stage confirmatory assay, source tissue liver; conditions: HepG2 cells, read-out: IC50 relative
The source made the active and inactive calls. The rule behind the calls is not given here.
Quick reference for CC50 among some compounds

Please report CC50 for the following compound: COc1cc(NS(C)(=O)=O)ccc1Nc1c2ccccc2nc2ccccc12 [AMSACRINE]
2.7 µM (active)

Please report CC50 for the following compound: C[C@@H]1CN(c2cc(-c3n[nH]c4ccc(OC5(C)CC5)cc34)ncn2)C[C@H](C)O1 [MLi-2]
16.5 µM (active)

====

assay: Cytotoxicity activity against human HepG2 cells assessed by CellTiter-Glo luminescent cell viability assay.; assay type: toxicity, cell-based; parameters: assay stage confirmatory assay, source tissue liver; details: HepG2 cells, read-out: IC50 relative
Counter-ions that a name gives are not always drawn. The source made the active and inactive calls. No rule for the calls is given here.
Entry note: the call must match one of active, inactive

Use these answered entries as a reference point.
CNCCCC12CCC(c3ccccc31)c1ccccc12 [MAPROTILINE HYDROCHLORIDE] | active
CN(C)CCCN(CCCN(C)C)CC(c1ccccc1)c1ccccc1 | active
CS(=O)(=O)CCNCc1ccc(-c2ccc3ncnc(Nc4ccc(OCc5cccc(F)c5)c(Cl)c4)c3c2)o1 | active
Cc1cc(Nc2ncc(Cl)c(Nc3ccccc3S(=O)(=O)C(C)C)n2)c(OC(C)C)cc1C1CCNCC1 | active
Cc1cc(Nc2ccc(NC(=O)c3ccc(Nc4ccnc5ccccc45)cc3)cc2)nc(N)n1 | active

For COc1ccc(CN(Cc2cn3c(C)cccc3n2)C2CC2)c(OC)c1 , what call appears in the results of this test?
active

For C[C@H]1COC2=C1C(=O)C(=O)c1c2ccc2c1CCCC2(C)C , what call appears in the results of this test?
active
